target: full length recombinant Pim-3 (Homo sapiens (Human), UniProt Q86V86); experiment: Pim enzyme assay (HTRF, phosphorylation of biotinylated-BAD (S112) peptide), Pim-3; assay type: biochemical; conditions: Pim-3 enzyme assay; read-out: Pim3 IC50
pIC50: −log10 of the molar value.

# compound, target, pIC50
rows = [
    ("CNc1nnc(-c2ccc3[nH]cc(-c4ccc(F)cc4F)c3c2)s1", "full length recombinant Pim-3 (Homo sapiens (Human), UniProt Q86V86)", 6.87),
    ("CNc1nnc(-c2ccc3[nH]cc(-c4cncc(N5CCCCC5)n4)c3c2)s1", "full length recombinant Pim-3 (Homo sapiens (Human), UniProt Q86V86)", 8.85),
    ("CNc1nnc(-c2ccc3[nH]cc(-c4ccn[nH]4)c3c2)s1", "full length recombinant Pim-3 (Homo sapiens (Human), UniProt Q86V86)", 6.57),
    ("Nc1cc(-c2c[nH]c3ccc(-c4nnc(N)s4)cc23)ccn1", "full length recombinant Pim-3 (Homo sapiens (Human), UniProt Q86V86)", 7.08),
    ("CC(C)Oc1cccc(-c2c[nH]c3ccc(-c4nnco4)cc23)n1", "full length recombinant Pim-3 (Homo sapiens (Human), UniProt Q86V86)", 7.82),
    ("CC(=O)Nc1ccc(CNc2nnc(-c3ccc4[nH]cc(-c5ccc(F)cc5F)c4c3)s2)cc1", "full length recombinant Pim-3 (Homo sapiens (Human), UniProt Q86V86)", 5.90),
    ("CNc1nnc(-c2ccc3[nH]cc(-c4nccc(N5CCCCC5)n4)c3c2)s1", "full length recombinant Pim-3 (Homo sapiens (Human), UniProt Q86V86)", 7.49),
    ("Oc1nnc(-c2ccc3[nH]cc(-c4ccc(F)cc4F)c3c2)s1", "full length recombinant Pim-3 (Homo sapiens (Human), UniProt Q86V86)", 6.10),
    ("CNc1nnc(-c2ccc3[nH]cc(-c4ccc5c(c4)OC(C)(C)C5)c3c2)s1", "full length recombinant Pim-3 (Homo sapiens (Human), UniProt Q86V86)", 7.04),
    ("CN1CCN(c2cccc(-c3c[nH]c4ccc(-c5nnc(N)s5)cc34)n2)CC1=O", "full length recombinant Pim-3 (Homo sapiens (Human), UniProt Q86V86)", 8.60),
    ("CN1CCN(c2cncc(-c3c[nH]c4ccc(-c5nnc(N)s5)cc34)n2)CC1=O", "full length recombinant Pim-3 (Homo sapiens (Human), UniProt Q86V86)", 8.13),
    ("Cc1nnc2n1CCN(c1cccc(-c3c[nH]c4ccc(-c5nnc(N)s5)cc34)n1)C2 [Example 25, 2,2,2-trifluoroacetate]", "full length recombinant Pim-3 (Homo sapiens (Human), UniProt Q86V86)", 8.52),
]
